# TEST_SYSTEM: Nucleoli Translocation, AR (gene 367)
# ASSAY_EXPLANATION: UPITT_HCI_U2OS_AR_TIF2_Nucleoli_Antagonist: University of Pittsburgh U2OS Androgen Receptor-Transcriptional Intermediary Factor 2 (AR-TIF2) Antagonism High Content Imaging Assay for Nucleoli Translocation (AID 2283997)
Records with an inconclusive call do not appear. Activity calls are given as the source filed them. Rule for the calls: active = hit-call score of the fitted dose curve at least 0.9, where 1 is the maximum; inconclusive = response in the unintended direction; inactive = score below 0.9.
MEASURED_METRIC: AC50

In [3]: df
Out[3]:
                                   compound            result
0              CCCOC(=O)c1ccc(C(=O)OCCC)nc1          inactive
1  COC(=O)CSc1cc(N=c2sc(=O)n3n2CCCC3)c(F)cc1Cl          inactive
2  CC1(C)C(C=C(Cl)Cl)C1C(=O)OCc1cccc(Oc2ccccc2)c1 (stereo not given)          inactive
3                      CSC(=O)c1cccc2nnsc12    50 µM (active)
4                     O=C(c1ccccc1)C1CCCCC1          inactive
5               CN(C)C(=O)Nc1ccc(Cl)c(Cl)c1          inactive
6         O=C(O)C1(C(=O)Nc2ccc(Cl)cc2Cl)CC1          inactive
7                       N#CSCSc1nc2ccccc2s1  9.92 µM (active)

Batch request: AC50 for each of the following compounds.
1. CCOC(=O)C(C)Oc1ccc(Oc2nc3ccc(Cl)cc3o2)cc1 (stereo not given)
2. CCCN(CCC)C(=O)SCC

// result
["inactive", "inactive"]

###

# Read-out: TIMP metallopeptidase inhibitor 2 (TIMP2), TIMP2 (gene 7077)
# ASSAY_EXPLANATION: BSK_KF3CT_TIMP2: BioMAP Diversity Plus: KF3CT Assay for TIMP metallopeptidase inhibitor 2 (TIMP2) Biomarker Activity (AID 2283071)
# CONDITIONS_USED: primary human keratinocytes with fibroblasts; actives raise or lower the signal
The source made the active and inactive calls. How the source made its calls: active means hit-call score of the fitted dose curve at least 0.9, where 1 is the maximum; inactive means score below 0.9.
Please answer using one outcome listed in 1.0 = active, 0.0 = inactive

Here's what some known entries look like.
>>> df
                                   molecule  classification
0            CCCCOCCOCCOCc1cc2c(cc1CCC)OCO2             0.0
1  O=C(Nc1ccc([N+](=O)[O-])cc1Cl)c1cc(Cl)ccc1O             1.0
2                        CCCOC(=O)NCCCN(C)C             0.0
3  N[C@@H](Cc1cc(I)c(Oc2ccc(O)c(I)c2)c(I)c1)C(=O)O             0.0
4  CCCN(CCC)c1c([N+](=O)[O-])cc(C(F)(F)F)c(N)c1[N+](=O)[O-]             1.0

// query Could you check what this test reported for CC1(C)C(C=C(Cl)Cl)C1C(=O)OCc1cccc(Oc2ccccc2)c1 (stereo unspecified) ?
// result 0.0

// query Moving on to `S=C(S)NCCNC(=S)S.[Mn+2].[S-]C([S-])=NCCN=C([S-])[S-].[Zn+2]`
// result 0.0

// query `Oc1ccc(C(c2ccc(O)cc2)C(Cl)(Cl)Cl)cc1` , same question.
// result 1.0

From: PubChem BioAssay (EPA / NIEHS)
